system: T1, human DAXX four-helix bundle domain (4HB, residues 50–144) (human, UniProt Q9UER7 50-144)
T1 construct: DAXX (death-domain-associated protein), human, N-terminal four-helix bundle, residues 50-144; Expressed and purified 'in a similar way' as the fusion protein (His6-SUMO removed with Ulp1); also called DAXX 4HB; hDAXX 4HB; source: E. coli BL21(DE3)-RIL, purified (Ni-NTA, heparin, Superdex 200); not shown: His6-SUMO, N-terminal, cleaved
T1 sequence (looked up): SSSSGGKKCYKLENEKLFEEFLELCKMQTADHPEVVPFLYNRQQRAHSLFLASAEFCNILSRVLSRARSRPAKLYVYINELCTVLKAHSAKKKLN
protocol_summary: ITC; 17 injections of 2.2 μl ATRX DBM peptide (1.5 mM) into 200 µl DAXX 4HB or mutants (150 µM); 20 °C; 20 mM Tris pH 7.5, 0.3 M NaCl; single site-binding model
condition_details: both partners purified
readout_kind: pKd
// pKd is dimensionless: -log10 of concentration (M)

Problem: Given the binder NDPENRIAKKMLLEEIKANLSSDE (peptide, UniProt P46100 1265-1288, looked up, The limits 1265–1288 are printed for the DBM of the fusion construct; also called ATRX DBM; hATRX DBM; source: synthetic peptide (Tufts University Peptide Core Facility)) [human ATRX DAXX-binding motif (DBM) peptide, wild type] , what is its reported pKd?
Result: 6.05

Recorded values, source paper PMC5662737.
